Form field: pKi (one value per entry).
target: 5-hydroxytryptamine receptor 4 (Rattus norvegicus, UniProt Q62758)
Sequence (Q62758 whole entry): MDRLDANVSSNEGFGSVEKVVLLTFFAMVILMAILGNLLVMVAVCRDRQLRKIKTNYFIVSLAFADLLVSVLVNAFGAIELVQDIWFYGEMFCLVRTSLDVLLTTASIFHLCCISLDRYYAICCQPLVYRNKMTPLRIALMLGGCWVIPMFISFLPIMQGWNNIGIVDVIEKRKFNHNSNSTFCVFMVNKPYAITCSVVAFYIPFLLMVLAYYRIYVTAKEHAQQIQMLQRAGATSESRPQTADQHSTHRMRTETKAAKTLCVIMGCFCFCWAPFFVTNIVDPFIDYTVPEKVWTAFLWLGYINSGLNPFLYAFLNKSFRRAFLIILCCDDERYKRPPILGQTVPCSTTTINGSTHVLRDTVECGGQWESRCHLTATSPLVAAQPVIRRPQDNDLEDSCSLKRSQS
Please report pKi as the negative decimal logarithm of the molar concentration, giving only the number.

Compound	pKi
CN1CCC(NC(=O)c2cccc3[nH]cnc23)CC1	6.14
O=C(NC1CN2CCC1CC2)c1cc(Cl)cc2nc[nH]c12 (stereo unspecified)	6.77

Task item: I'm curious: which pKi was measured for CN1C2CCCC1CC(NC(=O)c1cc(Cl)cc3nc[nH]c13)C2 (stereo unspecified) tested on 5-hydroxytryptamine receptor 4 (Rattus norvegicus, UniProt Q62758)?
Reply: 6.78

====

target: 5-hydroxytryptamine receptor 4 (Rattus norvegicus)
Measured Attribute: Ki (nM)
Give your result in nM as a bare value.

Observe how each entry below is paired with its result.
Compound	Val
CN1[C@@H]2CC[C@H]1C[C@@H](OC(=O)c1c[nH]c3ccccc13)C2 [TROPISETRON]	63
CN1CCC(NC(=O)c2cc(Cl)cc3[nH]cnc23)CC1	54

Turning now to a further record.
Task item: Given the entry COc1cc(N)c(Cl)cc1C(=O)NC1CN2CCC1CC2 (stereo not given) [ZACOPRIDE] , report its measured Ki.
Reply: 158

====

Form field: Ki (one value per entry).
molecular target: Serotonin 3 (5-HT3) receptor (Rattus norvegicus, UniProt P35563+Q9JJ16); assay: In vitro displacement of [3H]-LY 278584 from rat cerebral cortex 5-hydroxytryptamine 3 receptor
Sequence (P35563 whole entry): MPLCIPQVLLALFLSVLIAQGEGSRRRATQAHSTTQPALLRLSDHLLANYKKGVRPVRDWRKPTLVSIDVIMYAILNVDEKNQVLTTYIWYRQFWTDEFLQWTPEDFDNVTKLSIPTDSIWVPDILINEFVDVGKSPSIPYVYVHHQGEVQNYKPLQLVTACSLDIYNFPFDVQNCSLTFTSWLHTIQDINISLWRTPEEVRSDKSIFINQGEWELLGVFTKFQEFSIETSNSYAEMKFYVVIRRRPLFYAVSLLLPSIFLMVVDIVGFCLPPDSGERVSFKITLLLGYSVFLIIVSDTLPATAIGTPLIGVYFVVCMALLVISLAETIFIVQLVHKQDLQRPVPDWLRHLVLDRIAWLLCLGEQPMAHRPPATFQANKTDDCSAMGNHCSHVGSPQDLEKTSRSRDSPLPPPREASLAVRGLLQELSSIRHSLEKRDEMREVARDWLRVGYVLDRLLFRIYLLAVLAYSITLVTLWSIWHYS
Sequence (Q9JJ16 whole entry): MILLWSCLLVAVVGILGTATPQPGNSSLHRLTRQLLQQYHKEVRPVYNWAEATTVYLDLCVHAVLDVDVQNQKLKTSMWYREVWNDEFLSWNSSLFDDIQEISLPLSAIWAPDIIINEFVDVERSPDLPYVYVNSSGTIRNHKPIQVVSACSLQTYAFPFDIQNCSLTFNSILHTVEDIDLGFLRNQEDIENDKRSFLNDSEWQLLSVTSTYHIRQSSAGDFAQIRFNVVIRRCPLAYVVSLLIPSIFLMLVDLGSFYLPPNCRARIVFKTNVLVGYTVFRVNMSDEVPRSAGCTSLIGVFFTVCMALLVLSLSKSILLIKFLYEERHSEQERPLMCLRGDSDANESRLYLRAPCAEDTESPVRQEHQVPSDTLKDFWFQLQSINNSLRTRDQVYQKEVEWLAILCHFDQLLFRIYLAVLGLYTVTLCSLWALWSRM
Give your result in nM as a bare value.

Observe how each entry below is paired with its result.
Molecule	Ki [nM]
O=C(NC1CN2CCC1CC2)c1cc(Cl)cc2nc[nH]c12 (centres undefined)	0.29
O=C(NC1CN2CCC1CC2)c1cccc2nc[nH]c12 (centres undefined)	3.7
CN1C2CCCC1CC(OC(=O)c1cccc3nc[nH]c13)C2 (centres undefined)	129
CN1C2CCCC1CC(NC(=O)c1cc(Cl)cc3nc[nH]c13)C2 (centres undefined)	154

Task item: Given the entry CN1C2CCCC1CC(NC(=O)c1cccc3[nH]cnc13)C2 (centres undefined) , report its measured Ki.
Reply: 6.1

Task item: Given the entry CN1CCC(NC(=O)c2cc(Cl)cc3[nH]cnc23)CC1 , report its measured Ki.
Reply: 29.5

Task item: Given the entry CN1C2CCCC1CC(OC(=O)c1cc(Cl)cc3[nH]cnc13)C2 (centres undefined) , report its measured Ki.
Reply: 4.9

Task item: Given the entry CN1CCC(NC(=O)c2cccc3[nH]cnc23)CC1 , report its measured Ki.
Reply: 145

====

Form field: Ki (one value per entry).
biological target: UniProt Q62758

Task item: I'm curious: which Ki was measured for O=C(NC1CN2CCC1CC2)c1cccc2nc[nH]c12 (stereo not drawn) tested on UniProt Q62758?
Reply: > 1000 nM

Task item: I'm curious: which Ki was measured for CN1C2CCCC1CC(NC(=O)c1cccc3[nH]cnc13)C2 (stereo not drawn) tested on UniProt Q62758?
Reply: > 1000 nM

Task item: I'm curious: which Ki was measured for CN1CCC(OC(=O)c2cccc3nc[nH]c23)CC1 tested on UniProt Q62758?
Reply: > 10000 nM
